Target: farnesyl protein transferase (FPT), partially purified from rat brain (Rattus norvegicus, UniProt Q02293+Q04631)
Construct: were partially purified from rat brain by ammonium sulfate fractionation followed by Q-Sepharose
Assay: Inhibition of farnesyl protein transferase (transfer of [3H]farnesyl to Ras-CVLS)
Format: biochemical
Conditions: Ras-CVLS farnesylation, partially purified rat brain FPT; read-out: FPT IC50
pIC50: −log10 of the molar value.
measuredQuantity: pIC50

A selection of reference data follows.
CC(=O)N1CCCC(C(=O)N2CCN(C3c4ccc(Cl)cc4CCc4cccnc43)CC2)C1 (centres unmarked) = 5.37
O=C(c1cncc2ccccc12)N1CCC(=C2c3ccc(Cl)cc3CCc3cccnc32)CC1 = 5.06
O=C(Cc1cccnc1)N1CCC(=C2c3ccc(Cl)cc3CCc3c(O)ccnc32)CC1 = 5.14
CN(C)c1ccc(C(=O)N2CCC(=C3c4ccc(Cl)cc4CCc4cccnc43)CC2)cc1 = 5.32
O=C(c1cc[nH]c1)N1CCC(=C2c3ccc(Cl)cc3CCc3cccnc32)CC1 = 5.32
CC(=O)N1CCC(=C2c3ccc(Cl)cc3CCc3cc(Br)c[n+]([O-])c32)CC1 [Example 74B] = 5.40

[a] O=C(Nc1cccnc1)N1CCN([C@H]2c3ccc(Cl)cc3CCc3cccnc32)CC1
[b] O=C1Cc2cccnc2C(=C2CCN(C(=O)Cc3ccncc3)CC2)c2ccc(Cl)cc21
[c] NC1CCC(C(=O)N2CCC(=C3c4ccc(Cl)cc4CCc4cccnc43)CC2)CC1 (centres unmarked)
[d] O=C(c1ccc(=O)[nH]c1)N1CCC(=C2c3ccccc3CCc3ccccc32)CC1
Data request: // smallest pIC50 at index 0, largest at the end List the labels, following the order given in the request.
Data returned: d, c, b, a

[a] O=C(Nc1ccccn1)N1CCC(=C2c3ccc(Cl)cc3CCc3cccnc32)CC1
[b] O=C(Cc1cccnc1)N1CCC(=C2c3ccccc3CCc3cccnc32)CC1
Data request: Field: lower recorded pIC50 (choose a or b ) Write down the label attached to your selection.
Data returned: b
(b: 5.31, a: 5.68)

* * *

Measured inhibition in vivo at 100 mg/kg, listed per entry for reference.
System: SW620 (human colon adenocarcinoma [lymph node metastasis])
Experiment: In vivo anti-tumor study, SW620
Set-up: species or system athymic nu/nu female mice
Settings: Mus musculus, SW-620, po, SW620 tumor, 100 MPK, po, 10/wk, x4
Give the number; % is assumed, so skip it.

O=C(Cc1cccnc1)N1CCC(C2c3ccc(Cl)cc3CCc3cccnc32)CC1 (stereo not drawn) [Example 82A] = 27
CC(=O)N1CCC(C(=O)N2CCN(C3c4ccc(Cl)cc4CCc4cccnc43)CC2)CC1 (stereo not drawn) [Example 192] = 29
O=C(c1ccc(O)cc1)N1CCC(=C2c3ccc(Cl)cc3CCc3cccnc32)CC1 [Example 7] = 0
CN1C(=O)CC[C@H](C(=O)N2CCC(=C3c4ccc(Cl)cc4CCc4cccnc43)CC2)[C@H]1c1ccc(F)cc1 [Example 4] = 2
O=C(Cc1cccnc1)N1CCC(=C2c3ccc(Cl)cc3CCc3cccnc32)CC1 [Example 2] = 1

Now examine the next entry.
Data request: For O=C(Cc1ccc(O)c(O)c1)N1CCC(=C2c3ccc(Cl)cc3CCc3cccnc32)CC1 [Example 127] , write its inhibition in vivo at 100 mg/kg.
Data returned: 25

* * *

Target: farnesyl protein transferase (FPT), partially purified from rat brain (Rattus norvegicus, UniProt Q02293+Q04631)
Construct: were partially purified from rat brain by ammonium sulfate fractionation followed by Q-Sepharose
Assay: Inhibition of farnesyl protein transferase (transfer of [3H]farnesyl to Ras-CVLS)
Assay type: biochemical
Details: Ras-CVLS farnesylation, partially purified rat brain FPT; read-out: FPT IC50
pIC50: −log10 of the molar value.
measuredQuantity: pIC50

[P] CC(=O)N1CCN(C2c3ccc(Cl)cc3CCc3cccnc32)CC1C (centres unmarked) [Example 149]
[Q] O=C(C(=O)N1CCC(=C2c3ccc(Cl)cc3CCc3cccnc32)CC1)c1ccc([N+](=O)[O-])cc1 [Example 295]
Data request: Higher pIC50 between P and Q ? Write down the label attached to your selection.
Data returned: Q
(Q: 5.62, P: 4.97)

* * *

Measured IC50, listed per entry for reference.
Biological target: geranylgeranyl protein transferase (GGPT) I (Rattus norvegicus, UniProt P53610+Q04631)
Construct: were partially purified from rat brain by ammonium sulfate fractionation followed by Q-Sepharose
Test: Inhibition of geranylgeranyl protein transferase I (Ras-CVLL as acceptor)
Format: biochemical
Settings: enzyme inhibition

A selection of reference data follows.
CC(C)(C)c1cnc2c(c1)CCc1cc(Cl)ccc1C2=C1CCN(C(=O)Cc2cccnc2)CC1 [Example 304] = > 40 µM
O=C(Cc1cc[n+]([O-])cc1)N1CCC(=C2c3ccc(Cl)cc3CCc3cccnc32)CC1 [227 (5.102)] = > 41 µM
O=C(Cc1cc[n+]([O-])cc1)N1CCC(C2c3ccc(Cl)cc3CCc3cccnc32)CC1 (centres unmarked) [Example 234] = > 43 µM
CC1(C2CCN(C(=O)Cc3cc[n+]([O-])cc3)CC2)c2ccc(Cl)cc2CCc2cc(Br)cnc21 (centres unmarked) [Example 410-B] = 1000 µM

Data request: For CN1CCC(CC(=O)N2CCC(C3c4ccc(Cl)cc4CCc4cc(Br)cnc43)CC2)CC1 (centres unmarked) [Example 400-J] , write its IC50.
Data returned: 1000 µM

Data request: For O=C(Nc1cccnc1)N1CCC(C2c3ccc(Cl)cc3CCc3cccnc32)CC1 (centres unmarked) [Example 313] , write its IC50.
Data returned: > 46 µM

Data request: For O=C(Nc1ccccc1)N1CCC(=C2c3ccc(Cl)cc3CCc3cccnc32)CC1 [Example 293] , write its IC50.
Data returned: > 40 µM

Data request: For O=C(Nc1cccnc1)N1CCC(=C2c3ccc(Cl)cc3CCc3cccnc32)CC1 [Example 292] , write its IC50.
Data returned: > 44 µM

* * *

Target: geranylgeranyl protein transferase (GGPT) I (Rattus norvegicus, UniProt P53610+Q04631)
Construct: were partially purified from rat brain by ammonium sulfate fractionation followed by Q-Sepharose
Assay: Inhibition of geranylgeranyl protein transferase I (Ras-CVLL as acceptor)
Type: biochemical
Conditions: enzyme inhibition
Measured IC50, listed per entry for reference.

CO[C@](C(=O)N1CCC(=C2c3ccc(Cl)cc3CCc3cccnc32)CC1)(c1ccccc1)C(F)(F)F = > 40 µM
O=C(Cc1ccncc1)N1CCC(=C2c3ccc(Cl)cc3CCc3cc(Br)cnc32)CC1 = > 40 µM
O=C(Cc1ccc[n+]([O-])c1)N1CCC(C2c3ccc(Cl)cc3C=Cc3cc(Br)cnc32)CC1 (centres unmarked) = > 38 µM

Data request: State the measured IC50 (geranylgeranyl protein transferase (GGPT) I (Rattus norvegicus, UniProt P53610+Q04631)) of CC(=O)N1CCC(C(=O)N2CCN(C3c4ccc(Cl)cc4CCc4cccnc43)CC2)CC1 (centres unmarked)
Data returned: > 43 µM

Data request: State the measured IC50 (geranylgeranyl protein transferase (GGPT) I (Rattus norvegicus, UniProt P53610+Q04631)) of O=C(Cc1cccnc1)N1CCC(=C2c3ccc(Cl)cc3CCc3cc(Br)cnc32)CC1
Data returned: > 40 µM

Data request: State the measured IC50 (geranylgeranyl protein transferase (GGPT) I (Rattus norvegicus, UniProt P53610+Q04631)) of O=C(Cc1ccncc1)N1CCC(=C2c3cc(Cl)c(Cl)cc3CCc3cccnc32)CC1
Data returned: 41.3 µM

Data request: State the measured IC50 (geranylgeranyl protein transferase (GGPT) I (Rattus norvegicus, UniProt P53610+Q04631)) of O=C(Cc1ccncc1)N1CCC(C2c3ccc(Cl)cc3C=Cc3cc(Br)cnc32)CC1 (centres unmarked)
Data returned: > 39 µM

Data request: State the measured IC50 (geranylgeranyl protein transferase (GGPT) I (Rattus norvegicus, UniProt P53610+Q04631)) of CC1(C2CCN(C(=O)Cc3ccncc3)CC2)c2ccc(Cl)cc2CCc2cc(Br)cnc21 (centres unmarked)
Data returned: ~40 µM

* * *

Target: farnesyl protein transferase (FPT), partially purified from rat brain (Rattus norvegicus, UniProt Q02293+Q04631)
Construct: were partially purified from rat brain by ammonium sulfate fractionation followed by Q-Sepharose
Assay: Inhibition of farnesyl protein transferase (transfer of [3H]farnesyl to Ras-CVLS)
Assay type: biochemical
Settings: enzyme inhibition; read-out: FPT IC50
measuredQuantity: IC50 (nM)

A selection of reference data follows.
O=C(Cc1ccc[n+]([O-])c1)N1CCC(C2c3ccc(Cl)cc3CCc3cc(Br)cnc32)CC1 (stereo not shown) = 1500
CN1CCC(CC(=O)N2CCN([C@H]3c4ccc(Cl)cc4CCc4cccnc43)CC2)CC1 = 640
CC(=O)ON=C1Cc2cccnc2C(=C2CCN(C(=O)Cc3ccncc3)CC2)c2ccc(Cl)cc21 = 230
O=C(Cc1cc[n+]([O-])cc1)N1CCC(C2c3ccc(Cl)cc3CCc3cc(Br)cnc32)CC1 (stereo not shown) = 36

[a] CC(C)(C(=O)N1CCN(C2c3ccc(Cl)cc3CCc3cccnc32)CC1)c1ccc[n+]([O-])c1 (stereo not shown)
[b] CN1CCC(CC(=O)N2CCC(C3c4ccc(Cl)cc4C=Cc4cc(Br)cnc43)CC2)CC1 (stereo not shown)
[c] O=C(Nc1ccc[n+]([O-])c1)N1CCN(C2c3ccc(Cl)cc3CCc3cccnc32)CC1 (stereo not shown)
[d] O=C(Nc1ccc[n+]([O-])c1)N1CCN(C2c3ccc(Cl)cc3CCc3cc(Br)cnc32)CC1 (stereo not shown)
Data request: Put the items in sequence by IC50, from largest down. List the labels, following the order given in the request.
Data returned: c, a, d, b
(c: 2200 nM, a: 1260 nM, d: 240 nM, b: 68 nM)

This collection of values is drawn from patent US20030055065A1.
